System: Oryctolagus cuniculus
PROTOCOL_DETAILS: Toxicity in hyperlipidemic New Zealand Oryctolagus cuniculus (rabbit) assessed as total bilirubin level at 10 mg/kg/day, po for 2 months (reference value: 28.45 +/- 11.55 Umol/l)
Type: organism-based
Set-up: route oral
STUDY_CONDITIONS: in vivo
EXPERIMENTAL_READOUT: Activity (µmol/L)
Unit µmol/L implied. Number only.

Enquiry: State, in one line, measured Activity of CCCCCCCCCCCCCCCCc1c2c(OC)c(OC)ccc2cc2[n+]1CCc1cc3c(cc1-2)OCO3.[Cl-] [8-HEXADECYL-BERBERINE CHLORIDE]
Return: 13.3

* * *

System: Oryctolagus cuniculus
PROTOCOL_DETAILS: Toxicity in hyperlipidemic New Zealand Oryctolagus cuniculus (rabbit) assessed as blood urea nitrogen level at 5 mg/kg/day, po for 2 months (reference value: 7.25 +/- 1.46 mmol/l)
Format: organism-based
Set-up: route oral
STUDY_CONDITIONS: in vivo
EXPERIMENTAL_READOUT: Activity (mmol/L)
Give the value, in units of mmol/L, as a plain number.

Enquiry: For Oryctolagus cuniculus, give the measured Activity of the entry CCCCCCCCCCCCCCCCc1c2c(OC)c(OC)ccc2cc2[n+]1CCc1cc3c(cc1-2)OCO3.[Cl-] [8-HEXADECYL-BERBERINE CHLORIDE]
Return: 5.45

* * *

System: Oryctolagus cuniculus
PROTOCOL_DETAILS: Toxicity in high fat-high cholesterol fed New Zealand Oryctolagus cuniculus (rabbit) assessed as body weight at 15 mg/kg, po for 40 days
Type: organism-based
Design: dose 15 mg/kg, route oral
STUDY_CONDITIONS: in vivo, 960 h
EXPERIMENTAL_READOUT: Activity

The cases that follow already have their Activity on record.
INSERT INTO assay_data (molecule, measured_on, result) VALUES
  ('CCCCCCCCc1c2c(OC)c(OC)ccc2cc2[n+]1CCc1cc3c(cc1-2)OCO3.[Cl-] [8-OCTYL-BERBERINE CHLORIDE]', 'Oryctolagus cuniculus', 'Non-toxic'),
  ('CCCCCCCCCCCCCCCCCCc1c2c(OC)c(OC)ccc2cc2[n+]1CCc1cc3c(cc1-2)OCO3.[Cl-] [8-OCTADECYL-BERBERINE CHLORIDE]', 'Oryctolagus cuniculus', 'Non-toxic'),
  ('CCCCCCCCCCCCc1c2c(OC)c(OC)ccc2cc2[n+]1CCc1cc3c(cc1-2)OCO3.[Cl-] [8-DODECYL-BERBERINE CHLORIDE]', 'Oryctolagus cuniculus', 'Non-toxic'),
  ('CCCCCCCCCCCCCCc1c2c(OC)c(OC)ccc2cc2[n+]1CCc1cc3c(cc1-2)OCO3.[Cl-] [8-TETRADECYL-BERBERINE CHLORIDE]', 'Oryctolagus cuniculus', 'Non-toxic');

Let us examine a further case.
Enquiry: Give the reported Activity for this molecule. CCCCCCCCCCCCCCCCc1c2c(OC)c(OC)ccc2cc2[n+]1CCc1cc3c(cc1-2)OCO3.[Cl-] [8-HEXADECYL-BERBERINE CHLORIDE]
Return: Non-toxic
